molecular target: hMC5-R (human, UniProt P33032); assay: competition
Sequence (P33032 whole entry): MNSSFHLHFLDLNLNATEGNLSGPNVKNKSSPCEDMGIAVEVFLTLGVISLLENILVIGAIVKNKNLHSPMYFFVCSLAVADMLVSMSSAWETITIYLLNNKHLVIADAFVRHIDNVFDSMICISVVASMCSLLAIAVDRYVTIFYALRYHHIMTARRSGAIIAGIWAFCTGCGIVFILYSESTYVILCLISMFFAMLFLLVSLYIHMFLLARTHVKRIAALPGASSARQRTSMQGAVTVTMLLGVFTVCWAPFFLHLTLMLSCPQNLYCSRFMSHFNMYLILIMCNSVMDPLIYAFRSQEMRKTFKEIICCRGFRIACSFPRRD
Bridges are numbered along the chain shown (N, C = ends). Where no end group is shown, it is not given here. [ ]: non-standard residue; d: D form. Bip = N[C@@H](Cc1ccc(-c2ccccc2)cc1)C(=O)O; 2Nal = N[C@@H](Cc1ccc2ccccc2c1)C(=O)O; Nle = CCCC[C@H](N)C(=O)O; Bal = not defined here; βAla = NCCC(=O)O
property_label: Ki (nM)
Express it in nM; write the number only.

Exam item: Entry [dF]CH[dF]R[Bip][βAla][dC]T-NH2 (disulfide 2-8 (inferred)) [D-Phe-c(Cys-His-D-Phe-Arg-Bip-β-Ala-D-Cys)-Thr-NH2] : reported Ki = ?
Marked response: 1130

Continuing:
Exam item: I have this binder here, CEHXRXAC (cyclic, D-residues) [Ac-c(Cys-Glu-His-D-Phe-Arg-2-Nal-Ala-Cys)-NH2] , and I need its recorded Ki.
Marked response: 1460

Exam item: Ki lookup needed for Ac-[Nle]D[dA]H[dF]R[Bal]AK-NH2 (lactam 2-9; reading uncertain) [Ac-Nle-c(Asp-D-Ala-His-D-Phe-Arg-Bal-Ala-Lys)-NH2] , thanks.
Marked response: 11.1

Exam item: For the binder Ac-C[dA]H[dF]R[2Nal]AC-NH2 (disulfide 1-8 (inferred)) [Ac-c(Cys-D-Ala-His-D-Phe-Arg-2-Nal-Ala-Cys)-NH2] , what Ki is on record?
Marked response: 8810

Exam item: If you can, please state the reported Ki value of Ac-[Nle]D[dA]H[dF]R[Bal]K-NH2 (lactam 2-8; reading uncertain) [Ac-Nle-c(Asp-D-Ala-His-D-Phe-Arg-Bal-Lys)-NH2] .
Marked response: 4300
